The following molecules are listed with their measured inhibition values.
target: Runt-related transcription factor 1 (Homo sapiens) + Core-binding factor subunit beta (Homo sapiens) (UniProt Q01196+Q13951); test: disruptors of Runt domain/CBFb-SMMHC interaction – biochemical, FRET, Cerulean-Runt, Venus-CBFb-SMMHC, uHTS, primary screen (AID 1434); conditions: Cerulean-Runt/Venus-CBFb-SMMHC FRET ratio 530/480, 1 h; at 20 µM; hits give high values;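 also: 0% = DMSO wells and 100% = wells with excess untagged CBFb-SMMHC; inhibitors lower the FRET ratio by blocking Runt binding to CBFb-SMMHC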
Sequence (Q01196 whole entry, looked up, the tested form may be a part): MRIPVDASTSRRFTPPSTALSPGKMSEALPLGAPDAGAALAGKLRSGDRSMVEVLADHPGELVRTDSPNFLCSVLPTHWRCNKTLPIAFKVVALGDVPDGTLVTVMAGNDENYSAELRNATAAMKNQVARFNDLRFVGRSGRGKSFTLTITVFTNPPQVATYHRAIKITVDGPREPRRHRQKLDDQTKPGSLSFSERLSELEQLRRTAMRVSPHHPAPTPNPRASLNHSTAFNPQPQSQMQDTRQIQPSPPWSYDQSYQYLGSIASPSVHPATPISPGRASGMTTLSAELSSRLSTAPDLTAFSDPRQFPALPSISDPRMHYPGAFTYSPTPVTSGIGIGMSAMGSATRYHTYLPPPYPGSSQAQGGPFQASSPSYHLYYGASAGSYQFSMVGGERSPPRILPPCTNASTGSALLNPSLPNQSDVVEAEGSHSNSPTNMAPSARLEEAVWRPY
Sequence (Q13951 whole entry, looked up, the tested form may be a part): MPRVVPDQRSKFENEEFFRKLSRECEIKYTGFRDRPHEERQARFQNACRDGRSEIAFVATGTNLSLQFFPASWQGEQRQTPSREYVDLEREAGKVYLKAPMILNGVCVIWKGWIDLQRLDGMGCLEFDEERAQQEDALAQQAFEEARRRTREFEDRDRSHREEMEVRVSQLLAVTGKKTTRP
The whole screen tested about 220,000 compounds, of which about 1,600 (0.73%) were called active. This is one part of a sample in which actives are shown more often than they occur.
parameter: inhibition

1. COc1ccc(-c2cc(-c3ccc(N)cc3)nc(N)c2C#N)cc1OC	52.8% (inactive)
2. O=c1[nH]c(=S)[nH]c2[nH]c(=S)[nH]c12	45.1% (inactive)
3. CNC(=O)C(NC(=O)c1ccccc1)=C(C)C	-2.9% (inactive)
4. N#CC1=C(N)Oc2c(ccc3cccnc23)C1c1ccncc1 (stereo not drawn)	-1.6% (inactive)
5. O=C(COc1cccc(F)c1)Oc1ccc(C(=O)c2ccccc2)cc1	0.2% (inactive)
6. O=C(CN1CCN(S(=O)(=O)/C=C/c2ccccc2)CC1)Nc1ccc(N2CCOCC2)cc1	1.4% (inactive)
7. COc1ccc(CCn2c(=N)c(C(=O)NCc3ccco3)cc3c(=O)n4cccc(C)c4nc32)cc1	142% (active)
8. COc1cccc(/C=C/c2ccc3ccccc3n2)c1OC(C)=O	-3.2% (inactive)
